tgt: Platelet rich plasma, PRP (Canis lupus familiaris, UniProt A0A8I3N5G5+A0A8I3PMU9)
Sequence (A0A8I3N5G5 1-1047): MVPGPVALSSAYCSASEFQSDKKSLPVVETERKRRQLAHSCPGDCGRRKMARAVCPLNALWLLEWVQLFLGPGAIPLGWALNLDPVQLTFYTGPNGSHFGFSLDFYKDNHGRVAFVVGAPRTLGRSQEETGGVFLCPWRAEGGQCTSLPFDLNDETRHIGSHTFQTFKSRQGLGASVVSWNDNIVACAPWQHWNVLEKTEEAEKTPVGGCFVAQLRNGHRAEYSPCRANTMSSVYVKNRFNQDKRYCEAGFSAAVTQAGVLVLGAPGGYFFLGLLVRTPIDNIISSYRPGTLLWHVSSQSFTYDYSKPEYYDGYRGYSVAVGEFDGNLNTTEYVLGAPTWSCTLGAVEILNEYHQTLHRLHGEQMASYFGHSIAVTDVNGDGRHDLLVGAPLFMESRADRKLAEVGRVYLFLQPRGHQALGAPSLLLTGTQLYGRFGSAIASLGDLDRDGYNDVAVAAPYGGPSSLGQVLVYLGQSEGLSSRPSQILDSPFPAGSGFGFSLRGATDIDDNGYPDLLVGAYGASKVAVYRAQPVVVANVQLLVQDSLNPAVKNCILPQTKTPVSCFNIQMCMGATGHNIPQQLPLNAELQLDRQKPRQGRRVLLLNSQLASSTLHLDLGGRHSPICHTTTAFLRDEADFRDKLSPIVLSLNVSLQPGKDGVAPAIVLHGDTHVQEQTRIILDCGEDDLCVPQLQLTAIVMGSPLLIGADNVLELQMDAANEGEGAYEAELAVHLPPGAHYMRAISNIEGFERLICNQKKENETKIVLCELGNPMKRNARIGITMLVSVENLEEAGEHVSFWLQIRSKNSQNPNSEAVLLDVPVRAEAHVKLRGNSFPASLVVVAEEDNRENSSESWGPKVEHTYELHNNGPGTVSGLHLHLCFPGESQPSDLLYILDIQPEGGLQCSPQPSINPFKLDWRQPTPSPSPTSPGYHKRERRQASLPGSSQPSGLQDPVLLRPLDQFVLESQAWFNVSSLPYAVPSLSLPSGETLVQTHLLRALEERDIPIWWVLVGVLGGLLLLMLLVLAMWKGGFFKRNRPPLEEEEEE
Sequence (A0A8I3PMU9 1-919): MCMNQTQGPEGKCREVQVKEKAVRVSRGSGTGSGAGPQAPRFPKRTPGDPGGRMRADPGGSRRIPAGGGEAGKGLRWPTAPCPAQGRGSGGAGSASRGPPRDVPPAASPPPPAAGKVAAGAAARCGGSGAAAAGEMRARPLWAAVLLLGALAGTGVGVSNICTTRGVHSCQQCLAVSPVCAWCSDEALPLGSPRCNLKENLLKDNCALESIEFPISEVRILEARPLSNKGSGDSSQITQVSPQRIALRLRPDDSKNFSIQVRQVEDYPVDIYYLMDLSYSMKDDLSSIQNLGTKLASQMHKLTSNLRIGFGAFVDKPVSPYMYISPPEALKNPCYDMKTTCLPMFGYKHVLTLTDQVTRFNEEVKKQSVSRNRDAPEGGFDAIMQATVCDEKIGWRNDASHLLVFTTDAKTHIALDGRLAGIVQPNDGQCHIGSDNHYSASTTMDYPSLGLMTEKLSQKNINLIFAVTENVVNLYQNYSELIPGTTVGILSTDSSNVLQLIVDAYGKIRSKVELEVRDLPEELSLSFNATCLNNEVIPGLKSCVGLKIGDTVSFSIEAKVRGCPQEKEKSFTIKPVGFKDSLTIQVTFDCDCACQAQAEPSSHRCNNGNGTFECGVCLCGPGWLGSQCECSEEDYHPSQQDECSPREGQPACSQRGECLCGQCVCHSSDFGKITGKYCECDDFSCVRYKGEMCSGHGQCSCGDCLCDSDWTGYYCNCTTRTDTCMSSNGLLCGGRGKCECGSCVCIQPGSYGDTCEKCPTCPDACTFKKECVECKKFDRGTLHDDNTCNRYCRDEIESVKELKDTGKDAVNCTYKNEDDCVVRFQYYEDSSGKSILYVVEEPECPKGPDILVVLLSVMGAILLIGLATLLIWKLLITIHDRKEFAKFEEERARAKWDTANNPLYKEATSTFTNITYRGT
experiment: Inhibition of platelet aggregation, PRP/ADP
Format: cell-based
experimental.parameters: dog platelet rich plasma, 2 μM ADP, peptide added 3 min. prior to agonist; read-out: Antiaggregatory Activity IC50, μM PRP/ADP
Residues, ends and D or L forms follow the SMILES beside them.
test.readout: IC50 (µM)
The reply should contain only the number, in µM.

compound | units.label | IC50
CC(=O)N[C@H]1CSSC(C)(C)[C@@H](C(N)=O)NC(=O)[C@H](CO)NC(=O)[C@H](CC(=O)O)NC(=O)CNC(=O)[C@H](CCCNC(=N)N)N(C)C1=O [Example 5] (HELM PEPTIDE1{[ac].C.[meR].G.D.S.[Pen].[am]}$PEPTIDE1,PEPTIDE1,2:R3-7:R3$$$V2.0) | µM | 1.3
CC(=O)N[C@H]1CSSC(C)(C)[C@@H](C(N)=O)NC(=O)[C@H](CC(=O)O)NC(=O)CNC(=O)[C@@H](CCCNC(=N)N)NC1=O [Example 17] (HELM PEPTIDE1{[ac].C.[dR].G.D.[Pen].[am]}$PEPTIDE1,PEPTIDE1,2:R3-6:R3$$$V2.0) | µM | 4.1
CC(=O)N[C@H]1CSSC(C)(C)[C@@H](C(N)=O)NC(=O)[C@H](CC(=O)O)NC(=O)CNC(=O)[C@H](CCCNC(=N)N)NC1=O [Example 10] (HELM PEPTIDE1{[ac].C.R.G.D.[Pen].[am]}$PEPTIDE1,PEPTIDE1,2:R3-6:R3$$$V2.0) | µM | 4.12
CC(=O)N[C@H]1CSSC[C@@H](C(N)=O)NC(=O)[C@H](Cc2ccc(O)cc2)NC(=O)[C@H](CC(=O)O)NC(=O)CNC(=O)[C@H](CCCNC(=N)N)N(C)C1=O [Example 18] (HELM PEPTIDE1{[ac].C.[meR].G.D.Y.C.[am]}$PEPTIDE1,PEPTIDE1,2:R3-7:R3$$$V2.0) | µM | 1.49
CC(=O)N[C@H]1CSSC[C@@H](C(N)=O)NC(=O)[C@H](CO)NC(=O)[C@H](CC(=O)O)NC(=O)CNC(=O)[C@H](CCCNC(=N)N)N(C)C1=O [Example 1] (HELM PEPTIDE1{[ac].C.[meR].G.D.S.C.[am]}$PEPTIDE1,PEPTIDE1,2:R3-7:R3$$$V2.0) | µM | 1.1
CC(=O)N[C@@H](CCCN=C(N)N)C(=O)NCC(=O)N[C@@H](CC(=O)O)C(N)=O | µM | 138

Item CC(=O)N[C@H]1CSSC[C@@H](C(N)=O)NC(=O)[C@H](CO)NC(=O)[C@H](CC(=O)O)NC(=O)CNC(=O)[C@H](CCCNC(=N)N)NC1=O [Example 3] (HELM PEPTIDE1{[ac].C.R.G.D.S.C.[am]}$PEPTIDE1,PEPTIDE1,2:R3-7:R3$$$V2.0) : provide IC50 32.7

State, in one line, measured IC50 of CCN=C(NCC)NCCC[C@@H]1NC(=O)[C@@H](NC(C)=O)CSSC(C)(C)[C@@H](C(N)=O)NC(=O)[C@H](CC(=O)O)NC(=O)CNC1=O [Example 24] (HELM PEPTIDE1{[ac].C.[CCN=C(NCC)NCCC[C@H](N[*:1])C(=O)[*:2]].G.D.[Pen].[am]}$PEPTIDE1,PEPTIDE1,2:R3-6:R3$$$V2.0) 81.7
